system: HepaRG spheroids; assay: Combined HCI (HCS) and cellular ATP 3D assay in HepaRG spheroids; details: Homo sapiens, HepaRG, read-out: ATP endpoint MEC

[
  {
    "molecule": "O=C1CN(/N=C/c2ccc(-c3ccc([N+](=O)[O-])cc3)o2)C(O)=N1",
    "minimal effective concentration / µM": 53.2
  },
  {
    "molecule": "O=C(O)Cc1ccccc1Nc1c(Cl)cccc1Cl",
    "minimal effective concentration / µM": 38.2
  },
  {
    "molecule": "CN(C)CCC(c1ccc(Cl)cc1)c1ccccn1 (stereo not drawn)",
    "minimal effective concentration / µM": 120
  },
  {
    "molecule": "Cc1ccc(N(CC2=NCCN2)c2cccc(O)c2)cc1",
    "minimal effective concentration / µM": 29.3
  },
  {
    "molecule": "N[C@@H](Cc1cc(I)c(Oc2ccc(O)c(I)c2)c(I)c1)C(=O)O",
    "minimal effective concentration / µM": 11.5
  },
  {
    "molecule": "CC(C)C(=O)Nc1ccc([N+](=O)[O-])c(C(F)(F)F)c1 [flutamide, reference compound]",
    "minimal effective concentration / µM": 7.75
  },
  {
    "molecule": "COc1ccc2c(c1)c(CC(=O)O)c(C)n2C(=O)c1ccc(Cl)cc1",
    "minimal effective concentration / µM": 79.2
  },
  {
    "molecule": "NC(=O)N1c2ccccc2C=Cc2ccccc21 [carbamazepine, reference compound]",
    "minimal effective concentration / µM": 81.5
  },
  {
    "molecule": "Nc1c2c(nc3ccccc13)CCCC2 [tacrine, reference compound]",
    "minimal effective concentration / µM": 45.3
  },
  {
    "molecule": "CCCC(CCC)C(=O)O",
    "minimal effective concentration / µM": 12.3
  },
  {
    "molecule": "CC(=O)Oc1ccccc1C(=O)O",
    "minimal effective concentration / µM": 659
  },
  {
    "molecule": "CCCCc1oc2ccccc2c1C(=O)c1cc(I)c(OCCN(CC)CC)c(I)c1",
    "minimal effective concentration / µM": 98.8
  }
]

---

tested on: HepaRG spheroids; test: Combined HCI (HCS) and cellular ATP 3D assay in HepaRG spheroids; conditions: HepaRG; ATP endpoint; cut-off <25x Avg Cmax

[
  {
    "molecule": "C#CCN(C)Cc1ccccc1",
    "HepaRG <25x Avg Cmax ATP": "-ve"
  },
  {
    "molecule": "C1CCC(C(CC2CCCCN2)C2CCCCC2)CC1 (centres unmarked)",
    "HepaRG <25x Avg Cmax ATP": "+ve"
  },
  {
    "molecule": "CC(COc1ccccc1)N(CCCl)Cc1ccccc1 (centres unmarked)",
    "HepaRG <25x Avg Cmax ATP": "-ve"
  },
  {
    "molecule": "Nc1cc(N2CCCCC2)nc(N)[n+]1[O-]",
    "HepaRG <25x Avg Cmax ATP": "-ve"
  },
  {
    "molecule": "Cc1c(C)c2c(c(C)c1O)CCC(C)(COc1ccc(CC3SC(=O)NC3=O)cc1)O2 (centres unmarked) [troglitazone, reference compound]",
    "HepaRG <25x Avg Cmax ATP": "+ve"
  },
  {
    "molecule": "O=C1CC2(CCCC2)CC(=O)N1CCCCN1CCN(c2ncccn2)CC1 [buspirone, reference compound]",
    "HepaRG <25x Avg Cmax ATP": "-ve"
  },
  {
    "molecule": "Clc1ccccc1CN1CCc2sccc2C1",
    "HepaRG <25x Avg Cmax ATP": "+ve"
  },
  {
    "molecule": "CC[C@H]1OC(=O)[C@H](C)[C@@H](O[C@H]2C[C@@](C)(OC)[C@@H](O)[C@H](C)O2)[C@H](C)[C@@H](O[C@@H]2O[C@H](C)C[C@H](N(C)C)[C@H]2O)[C@](C)(O)C[C@@H](C)C(=O)[C@H](C)[C@@H](O)[C@]1(C)O",
    "HepaRG <25x Avg Cmax ATP": "+ve"
  },
  {
    "molecule": "N[C@@H]1[C@H]2CN(c3nc4c(cc3F)c(=O)c(C(=O)O)cn4-c3ccc(F)cc3F)C[C@@H]12",
    "HepaRG <25x Avg Cmax ATP": "+ve"
  },
  {
    "molecule": "CN(C)CCCN1c2ccccc2Sc2ccc(Cl)cc21 [chlorpromazine, reference compound]",
    "HepaRG <25x Avg Cmax ATP": "+ve"
  },
  {
    "molecule": "CC(C)C(=O)Nc1ccc([N+](=O)[O-])c(C(F)(F)F)c1 [flutamide, reference compound]",
    "HepaRG <25x Avg Cmax ATP": "+ve"
  },
  {
    "molecule": "CCN(CC)CCNC(=O)c1c(C)[nH]c(/C=C2\\C(=O)Nc3ccc(F)cc32)c1C",
    "HepaRG <25x Avg Cmax ATP": "+ve"
  },
  {
    "molecule": "CN(C)C(=N)N=C(N)N",
    "HepaRG <25x Avg Cmax ATP": "-ve"
  },
  {
    "molecule": "CN(C)CCC(c1ccc(Cl)cc1)c1ccccn1 (centres unmarked)",
    "HepaRG <25x Avg Cmax ATP": "-ve"
  },
  {
    "molecule": "N[C@@H](Cc1cc(I)c(Oc2ccc(O)c(I)c2)c(I)c1)C(=O)O",
    "HepaRG <25x Avg Cmax ATP": "-ve"
  },
  {
    "molecule": "CCN(CC)C(=O)/C(C#N)=C/c1cc(O)c(O)c([N+](=O)[O-])c1",
    "HepaRG <25x Avg Cmax ATP": "+ve"
  },
  {
    "molecule": "CS(=O)(=O)CCNCc1ccc(-c2ccc3ncnc(Nc4ccc(OCc5cccc(F)c5)c(Cl)c4)c3c2)o1",
    "HepaRG <25x Avg Cmax ATP": "+ve"
  },
  {
    "molecule": "NC(=O)N1c2ccccc2C=Cc2ccccc21 [carbamazepine, reference compound]",
    "HepaRG <25x Avg Cmax ATP": "+ve"
  },
  {
    "molecule": "CC(=O)Oc1ccccc1C(=O)O",
    "HepaRG <25x Avg Cmax ATP": "+ve"
  },
  {
    "molecule": "CCOC(=O)CN[C@@H](C(=O)N1CC[C@H]1C(=O)NCc1ccc(/C(N)=N\\O)cc1)C1CCCCC1",
    "HepaRG <25x Avg Cmax ATP": "-ve"
  },
  {
    "molecule": "CCc1nn(CCCN2CCN(c3cccc(Cl)c3)CC2)c(=O)n1CCOc1ccccc1 [nefazodone, reference compound]",
    "HepaRG <25x Avg Cmax ATP": "+ve"
  },
  {
    "molecule": "Cc1ccc(N(CC2=NCCN2)c2cccc(O)c2)cc1",
    "HepaRG <25x Avg Cmax ATP": "-ve"
  },
  {
    "molecule": "Cc1c(-c2ccccc2)oc2c(C(=O)OCCN3CCCCC3)cccc2c1=O [flavoxate]",
    "HepaRG <25x Avg Cmax ATP": "-ve"
  },
  {
    "molecule": "CC(C)(C)NCC(O)COc1cccc2c1CC(O)C(O)C2 (centres unmarked)",
    "HepaRG <25x Avg Cmax ATP": "-ve"
  },
  {
    "molecule": "COc1ccc2c(c1)c(CC(=O)O)c(C)n2C(=O)c1ccc(Cl)cc1",
    "HepaRG <25x Avg Cmax ATP": "+ve"
  },
  {
    "molecule": "CCOC(=O)c1ncn2c1CN(C)C(=O)c1cc(F)ccc1-2 [flumazenil, reference compound]",
    "HepaRG <25x Avg Cmax ATP": "-ve"
  },
  {
    "molecule": "CCc1ccc(CCOc2ccc(CC3SC(=O)NC3=O)cc2)nc1 (centres unmarked) [pioglitazone, reference compound]",
    "HepaRG <25x Avg Cmax ATP": "+ve"
  },
  {
    "molecule": "Cc1ccc(C(=O)c2cc(O)c(O)c([N+](=O)[O-])c2)cc1 [tolcapone, reference compound]",
    "HepaRG <25x Avg Cmax ATP": "+ve"
  },
  {
    "molecule": "O=c1[nH]c(=O)n([C@@H]2O[C@H](CO)[C@@H](O)[C@@H]2F)cc1I",
    "HepaRG <25x Avg Cmax ATP": "+ve"
  }
]

Data provenance: paper PMC7395068
